# tested system: human GPR40 receptor (Homo sapiens)
# assay summary: Assay II: IP1 accumulation (IPOne HTRF) in 1321N1 cells stably expressing human GPR40
# Type: cell-based
# particulars: 1321N1 cells expressing human GPR40, stimulation 1 h at 37° C., 5% CO2, LiCl 50 mM
Entries whose EC50 is below 7 nM take T; entries at or above 7 nM take F.

1) Cc1ccnc(-c2cc(C)c(-c3ccc(F)c4c3CC[C@H]4Oc3ccc4c(c3)OC[C@H]4CC(=O)O)c(C)c2)c1 [Example 140]; T
2) O=C(O)C[C@@H]1COc2cc(O[C@@H]3CCc4c(-c5cccnc5N5CCCOCC5)ccc(F)c43)ccc21 [Example 127]; F
3) Cc1cc(-c2ccc(=O)n(C)n2)cc(C)c1-c1ccc(F)c2c1CC[C@H]2Oc1ccc2c(c1)OC[C@H]2CC(=O)O [Example 101]; T
4) Cc1cc(-n2cncn2)cc(C)c1-c1ccc(F)c2c1CC[C@H]2Oc1ccc2c(c1)OC[C@H]2CC(=O)O [Example 86]; F
5) Cc1cc(-c2ccn(C)c(=O)c2)cc(C)c1-c1ccc(F)c2c1CC[C@H]2Oc1ccc2c(c1)OC[C@H]2CC(=O)O [Example 84]; F

Does the reported EC50 of the following molecule sit strictly below 7 nM? Cc1cccc(-c2cc(C)c(-c3ccc(F)c4c3CC[C@H]4Oc3ccc4c(c3)OC[C@H]4CC(=O)O)c(C)c2)n1 [Example 139]
T

###

# tested system: human GPR40 receptor (Homo sapiens)
# assay summary: Assay II: IP1 accumulation (IPOne HTRF) in 1321N1 cells stably expressing human GPR40
# Type: cell-based
# particulars: 1321N1 cells expressing human GPR40, stimulation 1 h at 37° C., 5% CO2, LiCl 50 mM
pEC50: −log10 of the molar value.
Label YES when pEC50 is at or above 8; otherwise label NO.

1. Cc1cc(OC2CCC(C)(O)C2)cc(C)c1-c1ccc(F)c2c1CC[C@H]2Oc1ccc2c(c1)OC[C@H]2CC(=O)O (single isomer, unassigned) [Example 79]; YES
2. Cc1cc(OC2CCS(=O)(=O)NC2)cc(C)c1-c1ccc(F)c2c1CC[C@H]2Oc1ccc2c(c1)OC[C@H]2CC(=O)O (stereo partly drawn); NO
3. Cc1cc(-c2cnccn2)cc(C)c1-c1ccc(F)c2c1CC[C@H]2Oc1ccc2c(c1)OC[C@H]2CC(=O)O; YES

API: the following record is the query input.
Record COc1cnnc(-c2cc(C)c(-c3ccc(F)c4c3CC[C@H]4Oc3ccc4c(c3)OC[C@H]4CC(=O)O)c(C)c2)c1 ; criterion: pEC50 no lower than 8. Met?
YES

###

# tested system: human GPR40 receptor (Homo sapiens, UniProt O14842)
# Sequence (O14842 whole entry): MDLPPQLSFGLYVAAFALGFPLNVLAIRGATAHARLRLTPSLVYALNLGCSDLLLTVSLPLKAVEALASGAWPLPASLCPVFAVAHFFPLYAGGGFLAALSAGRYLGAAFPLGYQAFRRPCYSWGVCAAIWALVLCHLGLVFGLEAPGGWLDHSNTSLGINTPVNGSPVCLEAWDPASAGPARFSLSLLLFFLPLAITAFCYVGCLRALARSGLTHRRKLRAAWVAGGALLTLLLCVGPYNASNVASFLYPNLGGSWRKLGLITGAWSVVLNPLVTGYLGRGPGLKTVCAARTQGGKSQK
# assay summary: Assay I: IP1 accumulation (IPOne HTRF) in 1321N1 cells stably expressing human GPR40
# Type: cell-based
# particulars: 1321N1 cells expressing human GPR40, stimulation 1 hour at 37° C., 10% CO2, final LiCl 50 mM
readout name: pEC50
Answers are plain numbers, as −log10 of the molar value.

1. Cc1cc(OCC(C)(C)O)cc(C)c1-c1ccc(F)c2c1CC[C@H]2Oc1ccc2c(c1)OC[C@H]2CC(=O)O; 8.05
2. COCCCS(=O)(=O)c1cc(C)c(-c2ccc(F)c3c2CC[C@H]3Oc2ccc3c(c2)OC[C@H]3CC(=O)O)c(C)c1; 5.91
3. Cc1cc(OCC2CCS(=O)(=O)C2)cc(C)c1-c1ccc(F)c2c1CC[C@H]2Oc1ccc2c(c1)OC[C@H]2CC(=O)O (some centres unmarked); 8.05
4. Cc1cc(OCC2(C)COC2)cc(C)c1-c1ccc(F)c2c1CC[C@H]2Oc1ccc2c(c1)OC[C@H]2CC(=O)O; 8.40
5. Cc1cc(OCCNC(=O)OC(C)(C)C)cc(C)c1-c1ccc(F)c2c1CC[C@H]2Oc1ccc2c(c1)OC[C@H]2CC(=O)O; 7.47

Could you report pEC50 for every entry in the following list?
1. Cc1cc(OCC(C)(C)CN(C)C)cc(C)c1-c1ccc(F)c2c1CC[C@H]2Oc1ccc2c(c1)OC[C@H]2CC(=O)O
2. Cc1cc(OCC2CCS(=O)(=O)CC2)cc(C)c1-c1ccc(F)c2c1CC[C@H]2Oc1ccc2c(c1)OC[C@H]2CC(=O)O
3. Cc1c(C(N)=O)cccc1-c1ccc(F)c2c1CC[C@H]2Oc1ccc2c(c1)OC[C@H]2CC(=O)O

[7.77, 8.22, 6.93]

The reported measurements were obtained from patent US8642585B2.
